Data origin, for the record: paper PMC10671849

Experiment: Cytotoxicity MTT assay on PMA-differentiated THP-1 macrophages
Format: cell-based
Details: human; PMA-differentiated THP-1 macrophages, 72 h, MTT; 100 to 12.5 µM tested; read-out: Cytotoxicity CC50 (µM) 95% CI, THP-1
property name: CC50 at 72 h

Some solved entries appear below for comparison.
{"molecule": "C=CCc1cc(Cn2cc(-c3nc4ccccc4c(=O)o3)nn2)c(O)c(OC)c1", "property name": "CC50 at 72 h", "reported value": "> 100 µM"}
{"molecule": "C=CCc1cc(Cn2cc(C(=O)Nc3ccc(F)cc3C(N)=O)nn2)c(O)c(OC)c1", "property name": "CC50 at 72 h", "reported value": "45.8 µM"}
{"molecule": "C=CCc1cc(Cn2cc(-c3nc4ccccc4c(=O)[nH]3)nn2)c(O)c(OC)c1 [10a]", "property name": "CC50 at 72 h", "reported value": "> 100 µM"}

Task item: Can you look up the measured CC50 at 72 h of CCCCCCCCCCCCCCCCOP(=O)([O-])OCC[N+](C)(C)C [Miltefosine, miltefosine, reference compound] for me?
Reply: 29.4 µM

Task item: Can you look up the measured CC50 at 72 h of C=CCc1cc(Cn2cc(C(=O)Nc3ccc(OC)cc3C(N)=O)nn2)c(O)c(OC)c1 for me?
Reply: > 100 µM

Task item: Can you look up the measured CC50 at 72 h of C=CCc1cc(Cn2cc(C(=O)Nc3ccccc3C(N)=O)nn2)c(O)c(OC)c1 for me?
Reply: > 100 µM
